This listing pairs compounds with measured mALB, urine microalbumin value of each KATP agonist.
- Test system: STZ diabetic rat models (diabetic nephropathy)
- EXPERIMENTAL DETAILS: Urine microalbumin (mALB) by ELISA in STZ plus high-fat diet diabetic nephropathy rat model
- Assay type: in vivo, SD rats
- PARTICULARS: 1 mg/kg group, week 30, mean ± SE
PROPERTY NAME: mALB, urine microalbumin value of each KATP agonist (µg/mL)

{"columns": ["COMPOUND", "RECORDED RESULT"],
 "data": [
  ["CC1(C)Oc2ccc(C#N)cc2C(N2CCCC2=O)C1O (stereo not shown)", 77.6],
  ["C/N=C(/S)[C@]1(c2cccnc2)CCCC[S@@+]1[O-]", 59.7],
  ["CCC1NC(=O)c2cc(S(N)(=O)=O)c(Cl)cc2N1 (stereo not shown)", 114.6],
  ["CC(N/C(=N\\C#N)Nc1ccncc1)C(C)(C)C (stereo not shown)", 99.7]
]}
